test: Antiproliferative activity in human renal cancer cells; type: functional, cell-based; conditions: Cancer cell lines
reported property: pIC50
Lab note: report pIC50 as minus log10 of the concentration in molar units, number only.

Q: Which pIC50 reading was recorded for the molecule COc1ccc([C@@H]2[C@H](O)C(=O)N2c2cc(OC)c(OC)c(OC)c2)cc1[N+](=O)[O-] ?
A: 7.53

----------
experiment: Antiproliferative activity in human SK-N-BE cells assessed as cell viability after 72 hrs by MTT assay; type: functional, cell-based; details: sk-n-be
reported property: pIC50
Lab note: report pIC50 as minus log10 of the concentration in molar units, number only.

Q: Which pIC50 reading was recorded for the molecule COc1ccc([C@H]2[C@H](O)C(=O)N2c2cc(OC)c(OC)c(OC)c2)cc1O (stereo in doubt; (+)) ?
A: 8.88

Q: Can you handle COc1ccc([C@H]2[C@H](O)C(=O)N2c2cc(OC)cc(OC)c2)cc1 (stereo in doubt; (+)) next?
A: 8.95

Q: Can you handle COc1ccc([C@H]2[C@H](O)C(=O)N2c2cc(OC)cc(OC)c2)cc1 (racemic) next?
A: 8.65

Q: Can you handle COc1ccc([C@H]2[C@H](O)C(=O)N2c2cc(OC)c(OC)c(OC)c2)cc1O (racemic) next?
A: 8.38

----------
target: Tubulin (Sus scrofa, UniProt P02554+P02550); assay: Inhibition of porcine brain tubulin polymerization after 30 mins by spectrophotometry
reported property: IC50 (µM)
Supply the numeric figure in µM, leaving out any unit text.

Q: Field: IC50 (Tubulin (Sus scrofa, UniProt P02554+P02550)). Entry: COc1ccc([C@H]2[C@H](O)C(=O)N2c2cc(OC)c(OC)c(OC)c2)cc1O (racemic)
A: 3.8

Q: Can you handle COc1ccc([C@H]2[C@H](O)C(=O)N2c2cc(OC)c(OC)c(OC)c2)cc1O (stereo in doubt; (+)) next?
A: 1.61

Q: Can you handle COc1ccc([C@H]2[C@H](O)C(=O)N2c2cc(OC)cc(OC)c2)cc1 (stereo in doubt; (+)) next?
A: 1.3

Q: Can you handle COc1ccc([C@H]2[C@H](O)C(=O)N2c2cc(OC)cc(OC)c2)cc1 (racemic) next?
A: 3.6

----------
tested on: SW48; test: Antiproliferative activity in human SW48 cells assessed as cell viability after 72 hrs by MTT assay; format: functional, cell-based; conditions: sw48
reported property: pIC50
Lab note: report pIC50 as minus log10 of the concentration in molar units, number only.

Q: Field: pIC50 (SW48). Entry: COc1ccc([C@H]2[C@H](O)C(=O)N2c2cc(OC)cc(OC)c2)cc1 (stereo in doubt; (+))
A: 7.96

Q: Can you handle COc1ccc([C@H]2[C@H](O)C(=O)N2c2cc(OC)c(OC)c(OC)c2)cc1O (stereo in doubt; (+)) next?
A: 8.01

----------
tested on: SW48; assay: Antiproliferative activity in human SW48 cells assessed as cell viability after 72 hrs by MTT assay; assay type: functional, cell-based; settings: Homo sapiens, SW48, 72 h
reported property: pIC50
Lab note: report pIC50 as minus log10 of the concentration in molar units, number only.

Q: Which pIC50 reading was recorded for the molecule COc1ccc(/C=C\c2cc(OC)c(OC)c(OC)c2)cc1O [COMBRETASTATIN A4] ?
A: 8.48

Q: Can you handle COc1ccc([C@H]2[C@H](O)C(=O)N2c2cc(OC)cc(OC)c2)cc1 (racemic) next?
A: 7.92

Q: Can you handle COc1ccc([C@H]2[C@H](O)C(=O)N2c2cc(OC)c(OC)c(OC)c2)cc1O (racemic) next?
A: 7.82
